Biological target: UniProt:P16083
Sequence (P16083 whole entry): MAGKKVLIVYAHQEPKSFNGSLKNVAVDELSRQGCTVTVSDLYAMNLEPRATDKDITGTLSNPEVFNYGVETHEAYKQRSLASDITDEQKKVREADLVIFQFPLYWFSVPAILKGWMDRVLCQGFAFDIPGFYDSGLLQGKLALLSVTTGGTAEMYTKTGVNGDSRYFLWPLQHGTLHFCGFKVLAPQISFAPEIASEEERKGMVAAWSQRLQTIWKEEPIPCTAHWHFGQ
# reported IC50; entries follow
Give just the numeric value; µM need not be written.

mol=COc1cccc(/C=C/c2ccc(OC)c(OC)c2)c1 measured_parameter=IC50 recorded_number=6.8

Need IC50 of `COc1ccc(/C=C/c2cc(OC)cc(OC)c2)cc1` , thanks.
14.6

# iterate: `COc1ccc(/C=C(/c2cc(OC)cc(OC)c2)C(F)(F)F)cc1`
13

# iterate: `COc1ccc(/C(C)=C/c2cc(O)cc(O)c2)cc1`
12

# iterate: `COc1ccc(/C=C/c2ccc(O)c(O)c2)cc1`
9.3

# iterate: `COc1ccc(/C(C#N)=C/c2cc(OC)cc(OC)c2)cc1`
31.6

---

# reported log10 of IC50; entries follow
Molecular target: UniProt P16083
Sequence (P16083 whole entry): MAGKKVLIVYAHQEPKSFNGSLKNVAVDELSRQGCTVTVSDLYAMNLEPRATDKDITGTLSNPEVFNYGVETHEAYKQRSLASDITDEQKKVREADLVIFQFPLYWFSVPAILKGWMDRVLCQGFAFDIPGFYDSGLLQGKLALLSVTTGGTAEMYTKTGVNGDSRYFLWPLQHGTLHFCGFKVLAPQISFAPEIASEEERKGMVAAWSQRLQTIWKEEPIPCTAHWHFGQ
Test: Inhibition of human quinone reductase 2 expressed in Escherichia coli BL21(DE3) using N-methyldihydronicotinamide as co-substrate
Hey, these are logged values: log10 of IC50, µM being the unit before logging.

Use these answered entries as a reference point.
compound=COc1ccc(/C(C=O)=C/c2cc(OC)cc(OC)c2)cc1 assay_system="UniProt P16083" measured_parameter="log10 of IC50" recorded_number=1.38
compound=COc1cc(/C=C(\C)c2ccc(OC)c(OC)c2)cc(OC)c1 assay_system="UniProt P16083" measured_parameter="log10 of IC50" recorded_number=1.00
compound="COc1cc(/C=C/c2ccc(OC)c(OC)c2)cc(OC)c1 [(E)-3,4,3',5'-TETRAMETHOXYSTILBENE]" assay_system="UniProt P16083" measured_parameter="log10 of IC50" recorded_number=1.57
compound=CC/C(=C\c1cc(OC)cc(OC)c1)c1ccc(OC)c(OC)c1 assay_system="UniProt P16083" measured_parameter="log10 of IC50" recorded_number=1.21
compound=COc1cc(/C=C/c2ccc3ccccc3c2)cc(OC)c1 assay_system="UniProt P16083" measured_parameter="log10 of IC50" recorded_number=-0.14

Need log10 of IC50 of `COc1ccc(/C(C)=C/c2ccc(OC)c(OC)c2)cc1` , thanks.
0.83

# iterate: `COc1cc(/C=C/c2ccc(O)cc2)cc(OC)c1`
0.71

# iterate: `COc1ccc(/C=C/c2ccc3ccccc3c2)cc1OC`
0.74

# iterate: `C/C(=C\c1ccc(O)cc1)c1cc(O)cc(O)c1`
0.68

Sourced from ChEMBL document CHEMBL2424591
